Test system: MCF7
Test protocol: normalised growth rate inhibition (GR value) relative to DMSO control (GR (1 = untreated growth, 0 = cytostasis, <0 = cytotoxic)); higher = less growth inhibition
Test settings: 10 µM; 72 h
What normalised growth rate inhibition was measured for each of the following?
Numbers only.

List normalised growth rate inhibition for every entry below, keeping the order given.
1. O=C(NOC[C@H](O)CO)c1ccc(F)c(F)c1Nc1ccc(I)cc1F
2. Nc1cccc(-c2cc3c(Oc4cccc(O)c4)ncnc3[nH]2)c1
3. CCc1cc(Nc2nccc(-c3c(-c4ccc(OC)c(C(=O)Nc5c(F)cccc5F)c4)nc4ccccn34)n2)c(OC)cc1N1CCC(N2CCN(S(C)(=O)=O)CC2)CC1

0.0358
-0.165
0.319

Provide normalised growth rate inhibition values for the following items, in order.
1. C=CC(=O)Nc1cc2c(Nc3ccc(F)c(Cl)c3)ncnc2cc1OCCCN1CCOCC1
2. OCCCNc1cc(-c2ccnc(Nc3cccc(Cl)c3)n2)ccn1
3. CNC(=O)c1ccc(Nc2cc(Nc3ccccc3S(=O)(=O)C(C)C)c3cc[nH]c3n2)nc1
4. CO[C@H]1C[C@@H]2CC[C@@H](C)[C@@](O)(O2)C(=O)C(=O)N2CCCC[C@H]2C(=O)O[C@H]([C@H](C)C[C@@H]2CC[C@@H](O)[C@H](OC)C2)CC(=O)[C@H](C)/C=C(\C)[C@@H](O)[C@@H](OC)C(=O)[C@H](C)C[C@H](C)/C=C/C=C/C=C/1C
5. Cc1cc2c(F)c(Oc3ncnn4cc(OC[C@@H](C)O)c(C)c34)ccc2[nH]1
6. N#CC(c1ccnc(NCCc2cccnc2)n1)c1nc2ccccc2s1 (stereo unspecified)
7. CCOc1cc2ncc(C#N)c(Nc3ccc(OCc4ccccn4)c(Cl)c3)c2cc1NC(=O)/C=C/CN(C)C
8. CC(=O)c1c(C)c2cnc(Nc3ccc(N4CCNCC4)cn3)nc2n(C2CCCC2)c1=O

1. -0.367
2. -0.429
3. -0.222
4. 0.456
5. 0.86
6. 0.659
7. 0.0822
8. 0.294

Give measured normalised growth rate inhibition for every item shown.
1. FC(F)c1nc2ccccc2n1-c1nc(N2CCOCC2)nc(N2CCOCC2)n1
2. COc1cc2ncn(-c3cc(OCc4ccccc4C(F)(F)F)c(C(N)=O)s3)c2cc1OC
3. COc1cc2ncnc(Nc3ccc(F)c(Cl)c3)c2cc1OCCCN1CCOCC1
4. COc1cc(C(=O)NC2CCN(C)CC2)ccc1Nc1ncc2c(n1)N(C1CCCC1)CCC(=O)N2C(C)C
5. COc1cc2ncnc(-n3nc(-c4ccccn4)nc3N)c2cc1OC

1. -0.0168
2. 0.167
3. 0.808
4. 0.298
5. 0.499

---

System: SKBR3
Test protocol: normalised growth rate inhibition (GR value) relative to DMSO control (GR (1 = untreated growth, 0 = cytostasis, <0 = cytotoxic)); higher = less growth inhibition
Test settings: 10 µM; 72 h
Readout name: normalised growth rate inhibition
Answers are plain numbers.

Cc1[nH]c(/C=C2\C(=O)Nc3ccc(S(=O)(=O)Cc4c(Cl)cccc4Cl)cc32)c(C)c1C(=O)N1CCC[C@@H]1CN1CCCC1 | 0.012
CN1CC[C@H](c2c(O)cc(O)c3c(=O)cc(-c4ccccc4Cl)oc23)[C@H](O)C1 | -0.391
C[C@@H](N)c1ccc(C(=O)Nc2ccnc3[nH]ccc23)cc1 | -0.122
O=C(Nc1cccc(Nc2ncc(Br)c(NCCc3cnc[nH]3)n2)c1)N1CCCC1 | -0.0312
Cc1cn(-c2cc(NC(=O)c3ccc(C)c(Nc4nccc(-c5cccnc5)n4)c3)cc(C(F)(F)F)c2)cn1 | 0.208
OCCCNc1cc(-c2ccnc(Nc3cccc(Cl)c3)n2)ccn1 | -0.414
CCCS(=O)(=O)Nc1ccc(F)c(C(=O)c2c[nH]c3ncc(-c4ccc(Cl)cc4)cc23)c1F | 0.805
CCc1cc(Nc2nccc(-c3c(-c4ccc(OC)c(C(=O)Nc5c(F)cccc5F)c4)nc4ccccn34)n2)c(OC)cc1N1CCC(N2CCN(S(C)(=O)=O)CC2)CC1 | 1.05

Return reported normalised growth rate inhibition values for all items listed beneath this line.
1. Oc1cccc(-c2nc(N3CCOCC3)c3oc4ncccc4c3n2)c1
2. Cc1ccc2nc(NCCN)c3ncc(C)n3c2c1
3. CNC(=O)c1ccc(Nc2cc(Nc3ccccc3S(=O)(=O)C(C)C)c3cc[nH]c3n2)nc1

[-0.137, -0.358, -0.148]

---

Test system: SKBR3
Test protocol: normalised growth rate inhibition (GR value) relative to DMSO control (GR (1 = untreated growth, 0 = cytostasis, <0 = cytotoxic)); higher = less growth inhibition
Test settings: 0.37 µM; 72 h
For each record, write down the corresponding normalised growth rate inhibition.
Numbers only.

CCN(CC)CCCCNc1ncc2cc(-c3cc(OC)cc(OC)c3)c(NC(=O)NC(C)(C)C)nc2n1 | 1.08
COC1=C2C[C@@H](C)C[C@H](OC)[C@H](O)[C@@H](C)/C=C(\C)[C@H](OC(N)=O)[C@@H](OC)/C=C\C=C(/C)C(=O)NC(=CC1=O)C2=O [geldanamycin] | -0.0584
CC(=O)c1c(C)c2cnc(Nc3ccc(N4CCNCC4)cn3)nc2n(C2CCCC2)c1=O [palbociclib] | 0.612
CN1CCN(CCOc2cc(OC3CCOCC3)c3c(Nc4c(Cl)ccc5c4OCO5)ncnc3c2)CC1 [saracatinib] | 1
COc1cc(C(=O)N2CCC(N3CCN(C)CC3)CC2)ccc1Nc1ncc2c(n1)N(C)c1ccccc1C(=O)N2C [XMD-1150] | 0.609

# batch: return normalised growth rate inhibition for each of the 2 molecules below
1. c1ccc2c(-c3cnn4cc(-c5ccc(N6CCNCC6)cc5)cnc34)ccnc2c1
2. CS(=O)(=O)CCNCc1ccc(-c2ccc3ncnc(Nc4ccc(OCc5cccc(F)c5)c(Cl)c4)c3c2)o1 [lapatinib]

1.09
-0.0149

Answer for every listed entry: what is its normalised growth rate inhibition? The entries follow.
1. CCCS(=O)(=O)Nc1ccc(F)c(C(=O)c2c[nH]c3ncc(-c4ccc(Cl)cc4)cc23)c1F [vemurafenib]
2. COc1cc2ncnc(-n3nc(-c4ccccn4)nc3N)c2cc1OC
3. O=C(NC1CCNCC1)c1n[nH]cc1NC(=O)c1c(Cl)cccc1Cl [AT-7519]
4. O=C(Nc1cccc(Nc2ncc(Br)c(NCCc3cnc[nH]3)n2)c1)N1CCCC1 [BX-912]

1: 1.03; 2: 1.04; 3: -0.104; 4: 0.175

---

Tested on: MCF7
Test protocol: normalised growth rate inhibition (GR value) relative to DMSO control (GR (1 = untreated growth, 0 = cytostasis, <0 = cytotoxic)); higher = less growth inhibition
Test settings: 10 µM; 72 h
Everything with normalised growth rate inhibition lower than -0.2 is Not satisfied; everything else, including exactly -0.2, is Satisfied.

Cc1ccc2nc(NCCN)c3ncc(C)n3c2c1 | Not satisfied

API: above_or_equal(metric=normalised growth rate inhibition, cutoff=-0.2) for item `CC1=C(CO)C(=O)O[C@@H]([C@@H](C)[C@H]2CC[C@H]3[C@@H]4C[C@H]5O[C@]56[C@@H](O)C=CC(=O)[C@]6(C)[C@H]4CC[C@]23C)C1`
Satisfied

Reported normalised growth rate inhibition at or above -0.2? `Nc1ccc(-c2ccc3ncc4ccc(=O)n(-c5cccc(C(F)(F)F)c5)c4c3c2)cn1`
Satisfied

Given `CC[C@@H]1C(=O)N(C)c2cnc(Nc3ccc(C(=O)NC4CCN(C)CC4)cc3OC)nc2N1C1CCCC1` , state whether its normalised growth rate inhibition is at least -0.2.
Satisfied

Would you say `Cc1ccc(NC(=O)c2ccc(CN3CCN(C)CC3)cc2)cc1Nc1nccc(-c2cccnc2)n1` shows normalised growth rate inhibition at minimum -0.2?
Satisfied

Please check the record `Cc1ncc(-c2ccnc(Nc3ccc(S(C)(=O)=O)cc3)n2)n1C(C)C` and state if its normalised growth rate inhibition is at or above -0.2.
Not satisfied

Evaluate `c1ccc2c(-c3cnn4cc(-c5ccc(N6CCNCC6)cc5)cnc34)ccnc2c1` : normalised growth rate inhibition at minimum -0.2?
Not satisfied

Could you please find out whether C=CC(=O)Nc1cccc(Nc2nc(NC3CCC(N(C)C)CC3)nc3c2ncn3C(C)C)c1 (stereo not drawn) has normalised growth rate inhibition that meets -0.2 or exceeds it?
Not satisfied

---

Please respond with reported normalised growth rate inhibition for every item in the list.
Tested on: MCF7
Test protocol: normalised growth rate inhibition (GR value) relative to DMSO control (GR (1 = untreated growth, 0 = cytostasis, <0 = cytotoxic)); higher = less growth inhibition
Test settings: 10 µM; 72 h

Reference set (5 entries):
C=CC(=O)N1CCc2ccc(-n3c(=O)ccc4cnc5ccc(-c6cnn(C)c6)cc5c43)cc21 [QL-XII-47] | -0.188
CCCS(=O)(=O)Nc1ccc(F)c(C(=O)c2c[nH]c3ncc(-c4ccc(Cl)cc4)cc23)c1F [vemurafenib] | 0.858
CCCS(=O)(=O)Nc1ccc(F)c(C(=O)c2c[nH]c3ncc(Cl)cc23)c1F [PLX-4720] | 0.5
CN1CCN(c2ccc3nc(-c4c(N)c5c(F)cccc5[nH]c4=O)[nH]c3c2)CC1 [dovitinib] | 0.304
CCn1c(-c2nonc2N)nc2c(C#CC(C)(C)O)ncc(OC[C@H]3CCCNC3)c21 | 0.312

Your task in this section: give normalised growth rate inhibition for each listed record.
1. COc1cc(N2CCC(N3CCN(C)CC3)CC2)ccc1Nc1ncc(Cl)c(Nc2ccccc2S(=O)(=O)C(C)C)n1 [NVP-TAE684]
2. CC(=O)Nc1cccc(-n2c(=O)n(C3CC3)c(=O)c3c(Nc4ccc(I)cc4F)n(C)c(=O)c(C)c32)c1 [trametinib]

1: -0.198; 2: 0.425

Provide one value: measured normalised growth rate inhibition of CC[C@H](CO)Nc1nc(NCc2ccccc2)c2ncn(C(C)C)c2n1 [roscovitine]
-0.102

Data origin: the supplement of paper PMC5662764
